Where do the numbers come from? From PubChem BioAssay (NCATS).

test system: HACAT; experiment: qHTS assay to identify novel small-molecules to repurpose for Merkel cell carcinoma treatment (AID 1296009); conditions: MCC and control cell lines, CellTiter-Glo viability, 72 h; at 44.8 µM (top of the series) unless noted; also: nearly all actives have a fitted effect of over 60% in size
Inconclusive results are not listed. Active and inactive are the calls of the source. Calls follow the shape of the dose curve; as a rule, active = well fitted inhibition curve with a large enough effect; inconclusive = small, poorly fitted or top-dose-only effect; inactive = flat fitted curve, though single readings scatter.
QUANTITY_MEASURED: outcome

COC(=O)C[C@H]1C(C)(C)[C@H](OC(=O)C(C)C)C2CC3=C4CC(=O)O[C@@H](c5ccoc5)[C@]4(C)CCC3[C@@]1(C)C2=O (some centres undefined) : inactive [at 17.4 µM]
C=CCc1ccc(O[C@@H]2O[C@H](CO)[C@@H](O)[C@H](O)[C@H]2O)c(O[C@@H]2O[C@H](CO)[C@@H](O)[C@H](O)[C@H]2O)c1 : inactive [at 17.4 µM]
COC(=O)C1=CO[C@@H](O[C@@H]2O[C@H](CO)[C@@H](O)[C@H](O)[C@H]2O)[C@@H]2[C@@H](C)[C@@H](O)C(O)[C@H]12 (some centres undefined) : inactive [at 17.4 µM]
CC(C)C1C(OC(=O)/C=C/c2ccccc2)CC2(C)OC2CCC2(C)OC2C1O (centres undefined) : inactive
COc1cc(/C=C/C(=O)O[C@H]2[C@@H]3C=CO[C@@H](O[C@@H]4O[C@H](CO)[C@@H](O)[C@H](O)[C@H]4O)[C@@H]3[C@@]3(CO)O[C@@H]23)ccc1O : inactive [at 17.4 µM]
Cc1cc(-c2nncc3c(C(C)(C)C)c(OCc4ncnn4C)nn23)no1 : inactive
CC(C)C1NC(=O)C(CC2(O)c3ccccc3N3C(=O)C(Cc4ccccc4)NC32)NC1=O (centres undefined) : inactive [at 17.4 µM]
CC1=C(CC/C(C)=C/C(=O)O)[C@@]2(C)CCCC(C)(C)C2CC1=O (some centres undefined) : inactive
C=C1CC[C@@]2(OC1)O[C@H]1CC3[C@@H]4CC=C5C[C@@H](O)C[C@@H](O[C@@H]6OC[C@H](O)[C@H](O)[C@H]6O[C@@H]6O[C@@H](C)[C@H](O)[C@@H](O)[C@H]6O)[C@]5(C)C4CC[C@]3(C)[C@H]1[C@@H]2C (some centres undefined) : inactive [at 17.4 µM]
C=CC(C)(O)CC/C=C(\C)COC1O[C@H](CO)[C@@H](O)[C@H](O)[C@H]1O (some centres undefined) : inactive
CCC(C)C(=O)O[C@H]1C[C@](C)(O)[C@]23OC(C)(C)[C@H](C[C@H](OC(=O)c4ccccc4)[C@]2(COC(C)=O)[C@H]1OC(=O)C(C)CC)[C@H]3OC(C)=O (some centres undefined) : inactive [at 17.4 µM]
CC1CCC2(C(=O)O)CCC3(C)C(=CCC4C5(C)C[C@@H](O)[C@@H](O)C(C)(CO)C5CCC43C)C2C1(C)O (some centres undefined) : inactive [at 17.4 µM]
COc1cc(C)c(C(=O)O[C@@H]2[C@H](O)[C@@H](CO)O[C@H]2n2ccc(=O)[nH]c2=O)c(OC)c1 : inactive [at 17.4 µM]
